Data origin: patent US12257247B2

# system.tested: VAV1 (Homo sapiens, UniProt P15498+Q96SW2)
# Construct: A heterozygous VAV1 C-terminal HiBiT knock-in pool was generated at Monte Rosa Therapeutics from a clonal Jurkat cell; endogenous in cells; host or cells: Jurkat clone stably expressing LgBiT, homozygous GSPT1-G575N; heterozygous VAV1-HiBiT knock-in pool
# test.summary: VAV1 degradation activity, VAV1-HiBiT knock-in Jurkat luminescence assay (Example A, Table 1)
# Assay type: cell-based
# details: VAV1-HiBiT knock-in Jurkat cells, luminescence read at 6 and 24 hours; read-out: VAV1 DC50 (nM), class
experimental.endpoint: DC50

[[record]]
compound = "Cn1ccc(COc2ccc(-c3cccc(C4CCC(=O)NC4=O)c3)cc2)n1 (centres unmarked)"
system_tested = "VAV1 (Homo sapiens, UniProt P15498+Q96SW2)"
experimental_endpoint = "DC50"
value_observed = "> 1000 nM"

[[record]]
compound = "O=C1CCC(c2cccc(-c3ccc(Cc4ncccn4)nc3)c2Cl)C(=O)N1 (centres unmarked)"
system_tested = "VAV1 (Homo sapiens, UniProt P15498+Q96SW2)"
experimental_endpoint = "DC50"
value_observed = "≤ 100 nM"

[[record]]
compound = "O=C1CCC(c2cccc(-c3ccc(N4CCCOC4=O)cc3)c2Cl)C(=O)N1 (centres unmarked)"
system_tested = "VAV1 (Homo sapiens, UniProt P15498+Q96SW2)"
experimental_endpoint = "DC50"
value_observed = "≤ 100 nM"

[[record]]
compound = "O=C1CCC(c2cccc(-c3ccc(N4C(=O)CCC45CCC5)cc3)c2Cl)C(=O)N1 (centres unmarked)"
system_tested = "VAV1 (Homo sapiens, UniProt P15498+Q96SW2)"
experimental_endpoint = "DC50"
value_observed = "≤ 100 nM"

[[record]]
compound = "O=C1CCC(c2cccc(-c3ccc(-n4ccccc4=O)nc3)c2Cl)C(=O)N1 (centres unmarked)"
system_tested = "VAV1 (Homo sapiens, UniProt P15498+Q96SW2)"
experimental_endpoint = "DC50"
value_observed = "≤ 100 nM"

[[record]]
compound = "CC1(C)CN(c2ccc(-c3cccc(C4CCC(=O)NC4=O)c3Cl)cc2)C(=O)CO1 (centres unmarked)"
system_tested = "VAV1 (Homo sapiens, UniProt P15498+Q96SW2)"
experimental_endpoint = "DC50"
value_observed = "≤ 100 nM"

[[record]]
compound = "O=C1CCC(c2cccc(-c3ccc(NC(=O)C4CCOC4)cc3)c2Cl)C(=O)N1 (centres unmarked)"
system_tested = "VAV1 (Homo sapiens, UniProt P15498+Q96SW2)"
experimental_endpoint = "DC50"
value_observed = "≤ 100 nM"

[[record]]
compound = "O=C1CCC(c2cccc(-c3ccc(N4CCN(CC(F)F)CC4=O)cc3)c2Cl)C(=O)N1 (centres unmarked)"
system_tested = "VAV1 (Homo sapiens, UniProt P15498+Q96SW2)"
experimental_endpoint = "DC50"
value_observed = "≤ 100 nM"


Pending compound:
Task item: Would you please give the reported DC50 of O=C1CCC(c2cccc(-c3ccc(C4COC(=O)N4)c(F)c3)c2Cl)C(=O)N1 (centres unmarked) with VAV1 (Homo sapiens, UniProt P15498+Q96SW2)?
Reply: > 1000 nM
